Target: KPHMT1 (Arabidopsis thaliana)
Construct: N-terminal 144 bp of CDS (mitochondrial signal peptide, 48 residues) deleted; N-terminal His6 (pET300), E. coli BL21 Star (DE3); purified per Results, bacterial lysate used directly per Methods; RED-Tris-NTA labelled
Sequence (O82357 49-347): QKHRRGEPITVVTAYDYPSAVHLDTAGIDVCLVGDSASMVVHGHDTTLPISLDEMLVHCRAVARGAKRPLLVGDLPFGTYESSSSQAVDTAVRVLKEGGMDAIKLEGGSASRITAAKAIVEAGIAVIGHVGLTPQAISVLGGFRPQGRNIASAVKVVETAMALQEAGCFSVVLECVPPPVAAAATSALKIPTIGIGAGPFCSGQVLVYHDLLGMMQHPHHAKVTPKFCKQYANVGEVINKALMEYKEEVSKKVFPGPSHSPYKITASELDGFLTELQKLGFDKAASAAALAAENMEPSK
Test: microscale thermophoresis

{"columns": ["compound", "target_of_assay", "endpoint_unit", "Kd"],
 "data": [
  ["CC(C)(CO)[C@@H](O)C(=O)NCCC(=O)O [pantothenate]", "KPHMT1 (Arabidopsis thaliana)", "µM", 500]
]}

----------
Target: GAPCP1 (Arabidopsis thaliana, UniProt Q9SAJ6)
Construct: N-terminal His6 (pDEST17), cloned from Arabidopsis cDNA, expressed in E. coli, SEC purified
Sequence (Q9SAJ6 whole entry): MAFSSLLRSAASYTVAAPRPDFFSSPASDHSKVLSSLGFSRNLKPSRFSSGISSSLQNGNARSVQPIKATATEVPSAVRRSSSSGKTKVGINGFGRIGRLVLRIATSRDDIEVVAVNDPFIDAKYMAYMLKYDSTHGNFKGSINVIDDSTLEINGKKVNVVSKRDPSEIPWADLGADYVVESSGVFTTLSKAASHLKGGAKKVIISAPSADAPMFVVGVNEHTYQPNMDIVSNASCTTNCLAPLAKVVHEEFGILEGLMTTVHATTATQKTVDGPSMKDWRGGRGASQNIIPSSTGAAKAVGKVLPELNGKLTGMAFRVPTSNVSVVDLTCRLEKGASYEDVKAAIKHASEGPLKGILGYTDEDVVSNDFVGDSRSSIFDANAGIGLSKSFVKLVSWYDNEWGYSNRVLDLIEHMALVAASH
Assay: biochemical
Design: nanoDSF thermal shift, intrinsic fluorescence ratio 350/330 nm, Prometheus NT.48
Conditions: 1x PBS
Where a SMILES comes first, the peptide text is derived from it.

{"columns": ["compound", "endpoint_unit", "ΔTm at 25 µM"],
 "data": [
  ["O=C(O)CC[C@H](NC(=O)[C@@H]1CCCN1)C(=O)O [ProGlu] (H-Pro-Glu-OH)", "°C", -0.1],
  ["NCC(=O)N1CCC[C@H]1C(=O)O [GlyPro] (H-Gly-Pro-OH)", "°C", -0.11],
  ["N[C@@H](Cc1c[nH]cn1)C(=O)N[C@@H](Cc1ccc(O)cc1)C(=O)O [His–Tyr] (H-His-Tyr-OH)", "°C", -0.02],
  ["CC(C)C[C@H](N)C(=O)N[C@@H](Cc1ccccc1)C(=O)O [LeuPhe] (H-Leu-Phe-OH)", "°C", -0.33],
  ["CSCC[C@H](NC(=O)[C@@H](N)[C@@H](C)O)C(=O)O [ThrMet] (H-Thr-Met-OH)", "°C", -0.01],
  ["CC(C)C[C@H](NC(=O)[C@@H](N)Cc1ccc(O)cc1)C(=O)O [TyrLeu] (H-Tyr-Leu-OH)", "°C", 0.15]
]}

----------
Molecular target: GAPCP2 (Arabidopsis thaliana)
Construct: N-terminal His6 (pDEST17), cloned from Arabidopsis cDNA, expressed in E. coli, SEC purified
Sequence (Q5E924 67-420): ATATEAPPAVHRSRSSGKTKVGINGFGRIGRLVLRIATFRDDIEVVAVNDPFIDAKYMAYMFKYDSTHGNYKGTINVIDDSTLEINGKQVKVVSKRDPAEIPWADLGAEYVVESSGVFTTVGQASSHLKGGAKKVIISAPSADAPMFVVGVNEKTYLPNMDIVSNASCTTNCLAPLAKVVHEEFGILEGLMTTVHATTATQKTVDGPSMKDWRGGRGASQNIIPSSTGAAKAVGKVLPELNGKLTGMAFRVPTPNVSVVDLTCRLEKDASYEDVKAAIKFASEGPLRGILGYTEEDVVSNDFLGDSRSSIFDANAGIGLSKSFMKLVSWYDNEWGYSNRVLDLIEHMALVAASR
Experiment: biochemical
Set-up: nanoDSF thermal shift, intrinsic fluorescence ratio 350/330 nm, Prometheus NT.48
Conditions: 1x PBS
Where a SMILES comes first, the peptide text is derived from it.
Known ΔTm at 50 µM of a selection of compounds
property_measured: ΔTm at 50 µM (°C)

{"columns": ["compound", "endpoint_unit", "assay_result"],
 "data": [
  ["CSCC[C@H](NC(=O)[C@@H](N)[C@@H](C)O)C(=O)O [ThrMet] (H-Thr-Met-OH)", "°C", 0.66],
  ["CC(C)C[C@H](N)C(=O)N[C@@H](Cc1ccccc1)C(=O)O [LeuPhe] (H-Leu-Phe-OH)", "°C", 0.2],
  ["NCC(=O)N1CCC[C@H]1C(=O)O [GlyPro] (H-Gly-Pro-OH)", "°C", 0.55],
  ["N[C@@H](Cc1c[nH]cn1)C(=O)N[C@@H](Cc1ccc(O)cc1)C(=O)O [His–Tyr] (H-His-Tyr-OH)", "°C", 0.22],
  ["O=C(O)CC[C@H](NC(=O)[C@@H]1CCCN1)C(=O)O [ProGlu] (H-Pro-Glu-OH)", "°C", -0.12],
  ["CC(C)C[C@H](NC(=O)[C@@H](N)Cc1ccc(O)cc1)C(=O)O [TyrLeu] (H-Tyr-Leu-OH)", "°C", 1.67]
]}

----------
Target: GAPDH (Homo sapiens, UniProt P04406)
Construct: commercial human recombinant protein (Sigma)
Sequence (P04406 2-335): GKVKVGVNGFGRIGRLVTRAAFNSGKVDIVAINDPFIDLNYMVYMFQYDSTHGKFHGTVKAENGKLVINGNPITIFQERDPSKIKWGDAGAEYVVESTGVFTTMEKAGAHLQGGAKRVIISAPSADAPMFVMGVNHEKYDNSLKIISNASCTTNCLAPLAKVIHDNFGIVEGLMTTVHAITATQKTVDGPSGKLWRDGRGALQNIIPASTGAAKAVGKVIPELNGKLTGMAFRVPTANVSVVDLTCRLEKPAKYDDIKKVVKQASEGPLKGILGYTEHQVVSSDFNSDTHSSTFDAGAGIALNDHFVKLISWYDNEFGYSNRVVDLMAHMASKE
Assay: biochemical
Set-up: nanoDSF thermal shift, intrinsic fluorescence ratio 350/330 nm, Prometheus NT.48
Conditions: 10 mM Tris pH 7.5, 0.5 M NaCl
Where a SMILES comes first, the peptide text is derived from it.

{"columns": ["compound", "ΔTm at 500 µM"],
 "data": [
  ["CSCC[C@H](NC(=O)[C@@H](N)[C@@H](C)O)C(=O)O [ThrMet] (H-Thr-Met-OH)", "0.2 °C"],
  ["N[C@@H](Cc1c[nH]cn1)C(=O)N[C@@H](Cc1ccc(O)cc1)C(=O)O [His–Tyr] (H-His-Tyr-OH)", "-1.2 °C"],
  ["CC(C)C[C@H](N)C(=O)N[C@@H](Cc1ccccc1)C(=O)O [LeuPhe] (H-Leu-Phe-OH)", "0.2 °C"],
  ["NCC(=O)N1CCC[C@H]1C(=O)O [GlyPro] (H-Gly-Pro-OH)", "0.1 °C"],
  ["CC(C)C[C@H](NC(=O)[C@@H](N)Cc1ccc(O)cc1)C(=O)O [TyrLeu] (H-Tyr-Leu-OH)", "2.2 °C"],
  ["O=C(O)CC[C@H](NC(=O)[C@@H]1CCCN1)C(=O)O [ProGlu] (H-Pro-Glu-OH)", "0.1 °C"]
]}
